test system: TO-3-N3-2 (biotin conjugate); test: pull-down binding Z-score (relative to library population); higher = stronger binding; settings: RNA library: Library-2
READOUT KIND: pull-down binding Z-score

Examples with answers:
CUGUGAUAACAACUCAG [hsa-mir-4705]	-0.23
UUUAGAAAAGAGAAUUCCAAA [hsa-mir-1252]	-0.206

Query block: # query: pull-down binding Z-score of entry UAGAGAAAACAACAGAGUUGUUAUUUCUAGUGAUGUUCUUGUUAACAACUAAACGAACAAUGUUUGUUUUUCUUGUUUUAUUGCCACUAGUCUCUA [SHAPE_invitro_SARS-CoV-2_Multi_58_ComplexLevel_1]
Result block: -0.215

Query block: # query: pull-down binding Z-score of entry GCAGAGCAGGACGCCGCUGCUGC [hsa-mir-8072]
Result block: 0.0817

Query block: # query: pull-down binding Z-score of entry GUACGAUCGAGUGUAC [DMSMaPseq_invitro_SARS-CoV-2_Motif_538]
Result block: -0.222

Query block: # query: pull-down binding Z-score of entry GUUGGGGAACAGGUGGUUAGCACUUCAU [hsa-mir-5196]
Result block: 0.521
